The measured values listed here are drawn from ChEMBL document CHEMBL1154983.

Experiment: AUC (0 to infinity) in rat at 5 mg/kg, po
Format: ADME, organism-based
Design: time infinity, dose 5 mg/kg, route oral
Details: plasma
experimentalReadout: AUC(0-inf) (ng·h/mL)
Form entry: value (ng·h/mL) — number only.

**Q:** Any idea what its AUC(0-inf) is? The compound is Cc1c(C(=O)NCCCN2CCN(c3cccc(Cl)c3Cl)CC2)cc(-c2ccccc2)n1C.Cl
**A:** 386

###

Target: 5-hydroxytryptamine receptor 2C (Homo sapiens, UniProt P28335)
Sequence (P28335 whole entry): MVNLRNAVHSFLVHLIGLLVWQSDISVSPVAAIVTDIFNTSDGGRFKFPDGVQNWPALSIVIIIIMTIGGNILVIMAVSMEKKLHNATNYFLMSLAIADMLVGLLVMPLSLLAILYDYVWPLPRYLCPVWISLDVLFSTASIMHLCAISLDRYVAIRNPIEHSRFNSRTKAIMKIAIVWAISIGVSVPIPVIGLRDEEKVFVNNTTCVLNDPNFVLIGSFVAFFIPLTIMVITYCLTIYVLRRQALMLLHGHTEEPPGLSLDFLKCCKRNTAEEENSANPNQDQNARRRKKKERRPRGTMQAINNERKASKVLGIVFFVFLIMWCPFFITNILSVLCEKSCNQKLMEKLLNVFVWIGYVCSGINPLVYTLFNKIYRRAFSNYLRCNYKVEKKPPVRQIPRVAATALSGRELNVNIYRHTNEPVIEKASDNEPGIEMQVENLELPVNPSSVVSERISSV
Assay: Displacement of [3H]mesulergine from human recombinant 5-HT2C receptor expressed in CHO-K1 cells after 60 mins by rapid filtration assay
Exercise: for every item that follows, state its recorded pIC50.
Scale explanation: pIC50 corresponds to minus log10 of a concentration expressed in moles per litre.

**Q:** Which pIC50 value belongs to Cc1c(C(=O)NCCCN2CCN(c3cccc(Cl)c3)CC2)cc(-c2ccccc2)n1N1CCCCC1 ?
**A:** 6.35

**Q:** So what does the record say about pIC50 for CCCn1c(-c2ccccc2)cc(C(=O)NCCCN2CCN(c3cccc(C)c3C)CC2)c1C ?
**A:** 6.65

**Q:** What value of pIC50 has been reported for the following compound? Cc1c(C(=O)NCCCN2CCN(c3cccc(Cl)c3)CC2)cc(-c2ccccc2)n1CC(C)C
**A:** 5.80

**Q:** Quick check: pIC50 of Cc1c(C(=O)NCCCN2CCN(c3cccc(Cl)c3)CC2)cc(-c2ccccc2)n1Cc1ccccc1 ?
**A:** 5.84
